Just for reference, patent US8642265B2 is where these values come from.

target: human DNA topoisomerase IIα (Homo sapiens); assay: DNA topoisomerase II in vitro cleavage assay; conditions: drug at 20 μM; MLL intron 8 substrate; 10 min 37° C.
Sequence (P11388 whole entry): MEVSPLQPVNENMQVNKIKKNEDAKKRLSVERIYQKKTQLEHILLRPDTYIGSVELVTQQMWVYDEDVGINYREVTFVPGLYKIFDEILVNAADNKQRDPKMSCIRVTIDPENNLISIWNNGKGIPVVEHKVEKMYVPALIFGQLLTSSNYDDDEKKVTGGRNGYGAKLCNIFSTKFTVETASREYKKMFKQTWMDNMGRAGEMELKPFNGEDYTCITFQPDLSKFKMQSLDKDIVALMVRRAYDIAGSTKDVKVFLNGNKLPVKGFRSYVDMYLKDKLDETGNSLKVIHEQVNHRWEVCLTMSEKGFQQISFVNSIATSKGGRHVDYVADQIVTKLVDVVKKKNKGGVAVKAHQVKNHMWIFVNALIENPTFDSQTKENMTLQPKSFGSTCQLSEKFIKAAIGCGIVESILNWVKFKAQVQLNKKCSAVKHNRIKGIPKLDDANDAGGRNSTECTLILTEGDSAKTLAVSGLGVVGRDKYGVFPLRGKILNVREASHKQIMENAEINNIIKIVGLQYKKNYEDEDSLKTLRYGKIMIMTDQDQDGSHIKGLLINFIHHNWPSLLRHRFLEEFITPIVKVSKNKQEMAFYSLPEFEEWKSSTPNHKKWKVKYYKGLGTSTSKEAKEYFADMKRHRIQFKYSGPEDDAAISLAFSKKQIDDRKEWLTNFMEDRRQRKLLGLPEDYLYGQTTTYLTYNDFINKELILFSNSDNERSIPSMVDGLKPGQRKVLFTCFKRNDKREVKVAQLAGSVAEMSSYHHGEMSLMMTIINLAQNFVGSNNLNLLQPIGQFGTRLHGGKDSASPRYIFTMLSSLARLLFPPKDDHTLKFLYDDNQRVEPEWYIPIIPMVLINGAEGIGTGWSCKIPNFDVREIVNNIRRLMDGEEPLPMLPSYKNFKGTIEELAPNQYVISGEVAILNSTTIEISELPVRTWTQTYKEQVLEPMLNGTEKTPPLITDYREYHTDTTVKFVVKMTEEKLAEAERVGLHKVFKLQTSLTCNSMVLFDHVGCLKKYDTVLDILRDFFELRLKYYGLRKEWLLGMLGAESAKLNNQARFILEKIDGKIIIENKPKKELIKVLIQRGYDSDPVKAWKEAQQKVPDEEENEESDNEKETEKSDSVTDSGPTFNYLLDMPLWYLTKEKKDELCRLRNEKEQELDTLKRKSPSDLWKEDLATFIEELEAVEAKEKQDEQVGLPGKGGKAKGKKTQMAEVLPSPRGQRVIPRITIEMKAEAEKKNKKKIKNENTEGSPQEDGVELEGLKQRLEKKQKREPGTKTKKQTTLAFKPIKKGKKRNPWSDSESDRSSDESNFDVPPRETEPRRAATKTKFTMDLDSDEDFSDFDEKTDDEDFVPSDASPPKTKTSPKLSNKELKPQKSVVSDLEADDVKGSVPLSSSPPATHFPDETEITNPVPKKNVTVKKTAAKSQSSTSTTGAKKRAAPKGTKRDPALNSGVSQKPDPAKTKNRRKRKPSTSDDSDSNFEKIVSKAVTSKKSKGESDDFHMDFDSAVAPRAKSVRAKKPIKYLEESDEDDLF
quantity: cleavage at MLL bcr position 6588 over cleavage without drug (enzyme-only) (fold)
Give the quantity in fold, number only.

The value of cleavage at MLL bcr position 6588 over cleavage without drug (enzyme-only) measured for the molecule `COc1cccc2c1C(=O)c1c(O)c3c(c(O)c1C2=O)C[C@@](O)(C(=O)CO)C[C@@H]3O[C@H]1C[C@H](N)[C@H](O)[C@H](C)O1` turned out to be 0.4

Form: molecule = COc1cc([C@@H]2c3cc4c(cc3[C@@H](O[C@@H]3O[C@@H]5CO[C@@H](C)O[C@H]5[C@H](O)[C@H]3O)[C@H]3COC(=O)[C@H]23)OCO4)cc(OC)c1O [etoposide] ; cleavage at MLL bcr position 6588 over cleavage without drug (enzyme-only) = 7.9

GET /value?item= COc1cc([C@@H]2c3cc4c(cc3[C@@H](O[C@@H]3O[C@@H]5CO[C@@H](C)O[C@H]5[C@H](O)[C@H]3O)[C@H]3COC(=O)[C@H]23)OCO4)cc(O)c1O [etoposide catechol] &field=cleavage at MLL bcr position 6588 over cleavage without drug (enzyme-only) returns 4.4

Form: molecule = COC1=CC(C2c3cc4c(cc3C(O[C@@H]3O[C@@H]5COC(C)O[C@H]5[C@H](O)[C@H]3O)C3COC(=O)C23)OCO4)=CC(=O)C1=O (stereo partly shown) [etoposide quinone] ; cleavage at MLL bcr position 6588 over cleavage without drug (enzyme-only) = 9.8

----------
biological target: DNA topoisomerase II cleavage complexes in CEM cells (Homo sapiens, UniProt P11388); assay: Modified ICE (in vivo complex of enzyme) bioassay in CEM cells; details: 20 μM, 2 hours
Sequence (P11388 whole entry, one chain of several): as the sequence (P11388 whole entry) above
quantity: induction of DNA topoisomerase II cleavage complexes

compound	measurement-target	reading
COc1cc([C@@H]2c3cc4c(cc3[C@@H](O[C@@H]3O[C@@H]5CO[C@@H](C)O[C@H]5[C@H](O)[C@H]3O)[C@H]3COC(=O)[C@H]23)OCO4)cc(O)c1O [etoposide catechol]	DNA topoisomerase II cleavage complexes in CEM cells (Homo sapiens, UniProt P11388)	significant induction
COc1cc([C@@H]2c3cc4c(cc3[C@@H](O[C@@H]3O[C@@H]5CO[C@@H](C)O[C@H]5[C@H](O)[C@H]3O)[C@H]3COC(=O)[C@H]23)OCO4)cc(OC)c1O [etoposide]	DNA topoisomerase II cleavage complexes in CEM cells (Homo sapiens, UniProt P11388)	significant induction
COC1=CC(C2c3cc4c(cc3C(O[C@@H]3O[C@@H]5COC(C)O[C@H]5[C@H](O)[C@H]3O)C3COC(=O)C23)OCO4)=CC(=O)C1=O (stereo partly shown) [etoposide quinone]	DNA topoisomerase II cleavage complexes in CEM cells (Homo sapiens, UniProt P11388)	significant induction
